- system: activated ERK2 (Homo sapiens (Human), UniProt P28482)
- Sequence (P28482 whole entry): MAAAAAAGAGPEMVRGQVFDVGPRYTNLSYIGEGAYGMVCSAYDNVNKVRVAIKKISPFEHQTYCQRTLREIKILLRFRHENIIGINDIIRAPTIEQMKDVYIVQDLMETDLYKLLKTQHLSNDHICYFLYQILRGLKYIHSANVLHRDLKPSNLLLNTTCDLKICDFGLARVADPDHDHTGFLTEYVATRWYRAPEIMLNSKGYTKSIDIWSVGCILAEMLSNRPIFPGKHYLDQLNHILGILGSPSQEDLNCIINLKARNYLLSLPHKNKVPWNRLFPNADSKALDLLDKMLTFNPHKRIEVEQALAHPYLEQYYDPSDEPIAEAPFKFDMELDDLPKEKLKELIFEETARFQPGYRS
- experimentalDetails: Activated ERK2 (20 pM) Kinase Assay (AlphaScreen, ERKtide phosphorylation)
- Type: biochemical
- testConditions: 0.02 nM ERK2, 400 nM ERKtide peptide, 35 μM ATP, 30 min preincubation
measuredQuantity: IC50 (nM)
Unit nM implied. Number only.

C[C@@H](O)[C@@H](NC(=O)c1ccc(-c2nc(C3CCOCC3)cnc2N)cc1F)c1cccc(Cl)c1 : 0.0645

Turning now to a further record.
Given the entry CN1C[C@@H](NC(=O)c2ccc(-c3cc(-c4cnn(C)c4)cnc3N)cc2F)[C@H](c2ccc(F)c(Cl)c2)C1 (stereo in doubt) , report its measured IC50. 430

----------
Entries and their measured IC50 follow.
- system: activated ERK2 (Homo sapiens (Human), UniProt P28482)
- experimentalDetails: Activated ERK2 kinase assay, ERK2 New conditions (AlphaScreen, ERKtide phosphorylation)
- Assay type: biochemical
- testConditions: 0.25 nM ERK2, 200 nM ERKtide peptide, 35 μM ATP, 30 min preincubation

COC(=O)N1CCCC(c2cnc(N)c(-c3ccc(C(=O)N[C@H](CO)c4cccc(Cl)c4)c(F)c3)n2)C1 (stereo partly shown) [Example 216] : 1.81 nM
COCCn1cc(-c2cnc(N)c(-c3ccc(C(=O)N[C@H](CO)c4ccccc4)c(F)c3)c2)cn1 [Example 171] : 1.09 nM
C[C@@H](NC(=O)c1ccc(-c2cc(C3CCC(=O)N(C)C3)cnc2N)cc1F)c1cccc(Cl)c1 (stereo partly shown) [Example 38] : 8.09 nM

Turning now to a further record.
Given the entry Nc1ncc(C2=CCCCC2)nc1-c1ccc(C(=O)N[C@H](CO)c2cccc(Cl)c2)c(F)c1 [Example 425] , report its measured IC50. 0.907 nM

----------
- system: activated ERK2 (Homo sapiens (Human), UniProt P28482)
- experimentalDetails: Activated ERK2 (20 pM) Kinase Assay (AlphaScreen, ERKtide phosphorylation)
- Format: biochemical
- testConditions: 0.02 nM ERK2, 400 nM ERKtide peptide, 35 μM ATP, 30 min preincubation
measuredQuantity: IC50

Please review the entries below; each comes with its answer.
Nc1ncc(C2CCOCC2)cc1-c1ccc(C(=O)NCc2ccc(Cl)cc2)cc1 : 70.5 nM
[N-]=[N+]=NC[C@@H](NC(=O)c1ccc(-c2nc(C3CCOCC3)cnc2N)cc1F)c1cccc(Cl)c1 : 0.115 nM
Nc1ncc([C@@H]2CCC(F)(F)[C@@H](O)C2)nc1-c1ccc(C(=O)N[C@H](CO)c2cccc(Cl)c2)c(F)c1 : 0.179 nM
C[C@@H](NC(=O)c1ccc(-c2nc(C3CCCCC3)cnc2N)cc1F)c1cc(F)cc(S(C)(=O)=O)c1 : 0.0614 nM
Nc1ncc(C2CCS(=O)(=O)CC2)cc1-c1ccc(C(=O)N[C@H](CO)c2ccccc2)cc1 : 50.8 nM

Hi! What's the reported IC50 for CC(=O)Nc1cccc(CNC(=O)c2ccc(-c3cc(C4CCOCC4)cnc3N)cc2)c1 on activated ERK2 (Homo sapiens (Human), UniProt P28482)? 135 nM

Also check Nc1ncc([C@@H]2CC[C@H](O)[C@H](O)C2)nc1-c1ccc(C(=O)N[C@H](CO)c2cc(F)cc(I)c2)c(F)c1 0.135 nM

----------
- system: activated ERK2 (Homo sapiens (Human))
- experimentalDetails: Activated ERK2 (20 pM) Kinase Assay (AlphaScreen, ERKtide phosphorylation)
- Format: biochemical
- testConditions: 0.02 nM ERK2, 400 nM ERKtide peptide, 35 μM ATP, 30 min preincubation
Entries and their measured pIC50 follow.
# pIC50 = -log10(concentration in molar units)

Please review the entries below; each comes with its answer.
NC[C@@H](NC(=O)c1ccc(-c2nc([C@@H]3CC[C@@H](O)[C@H](F)C3)cnc2N)cc1F)c1cc(F)cc(I)c1 [Example 315] : 11.30
CNC[C@@H](NC(=O)c1ccc(-c2nc([C@H]3CC[C@H](O)[C@@H](F)C3)cnc2N)cc1F)c1cc(F)cc(Br)c1 [Example 184] : 10.58
Nc1ncc([C@@H]2CC[C@@H](O)[C@H](F)C2)nc1-c1ccc(C(=O)N[C@H](CO)c2cc(F)cc(Br)c2)c(F)c1 [Example 183] : 10.24
CNC[C@@H](NC(=O)c1ccc(-c2nc([C@H]3CC[C@H](O)[C@@H](F)C3)cnc2N)cc1F)c1cc(F)cc(I)c1 [Example 357] : 10.84

Turning now to a further record.
Given the entry Cc1c(-c2cnc(N)c(-c3ccc(C(=O)N[C@H](CO)c4cccc(Cl)c4)c(F)c3)c2)cnn1C [Example 133] , report its measured pIC50. 10.73

----------
- system: activated ERK2 (Homo sapiens (Human), UniProt P28482)
- experimentalDetails: Activated ERK2 kinase assay, ERK2 New conditions (AlphaScreen, ERKtide phosphorylation)
- Assay type: biochemical
- testConditions: 0.25 nM ERK2, 200 nM ERKtide peptide, 35 μM ATP, 30 min preincubation
Lab note: compare IC50 with 3 nM, writing MET if less and NOT MET if equal or more.

Cn1cc(-c2cnc(N)c(-c3ccc(C(=O)N[C@H](CO)c4ccccc4)cc3)n2)cn1 [Example 146] : NOT MET
Cc1cc(-c2cc(-c3cnnn3C)cnc2N)ccc1C(=O)N[C@H](CO)c1cccc(Cl)c1 [Example 149] : MET
Nc1ncc(C2CNC(=O)C2)cc1-c1ccc(C(=O)N[C@H](CO)c2ccccc2)c(F)c1 (stereo partly shown) [Example 218] : NOT MET
Nc1ncc([C@@H]2CCOC2)nc1-c1ccc(C(=O)N[C@H](CO)c2ccccc2)cc1 [Example 136] : NOT MET

Problem: For the compound COC(=O)[C@@H]1C[C@H](c2cnc(N)c(-c3ccc(C(=O)N[C@H](CO)c4cccc(Cl)c4)c(F)c3)c2)CN1 [Example 223] , is IC50 under 3 nM? NOT MET

Also check Nc1ncc(-c2ccnnc2)nc1-c1ccc(C(=O)N[C@H](CO)c2ccccc2)c(F)c1 [Example 144] MET

Also check C[C@@H](NC(=O)c1ccc(-c2cc([C@@H]3CCC(=O)N(C)C3)cnc2N)cc1F)c1cccc(Cl)c1 [Example 40] MET

Also check Cn1nncc1-c1cnc(N)c(-c2cc(F)c(C(=O)N[C@H](CO)c3cccc(Cl)c3)c(F)c2)c1 [Example 141] MET

----------
- system: activated ERK2 (Homo sapiens (Human))
- experimentalDetails: Activated ERK2 kinase assay, ERK2 New conditions (AlphaScreen, ERKtide phosphorylation)
- Type: biochemical
- testConditions: 0.25 nM ERK2, 200 nM ERKtide peptide, 35 μM ATP, 30 min preincubation
measuredQuantity: IC50 (nM)
Unit nM implied. Number only.

Please review the entries below; each comes with its answer.
Nc1ncc(C2CCS(=O)(=O)CC2)cc1-c1ccc2c(c1)OCCN(Cc1ccccc1)C2=O : 1000
Nc1ncc([C@H]2CC[C@H](N)CC2)nc1-c1ccc(C(=O)N[C@H](CO)c2cccc(Cl)c2)c(F)c1 : 4.53
Cc1cc(-c2cc(-c3cnn(C)c3)cnc2N)ccc1C(=O)N[C@H](CO)c1ccccc1 : 1.08
Nc1ncc(C2CCOCC2)nc1-c1ccc(C(=O)N[C@@H]2CCCN(S(=O)(=O)c3ccccc3)C2)c(F)c1 : 45.9
CCn1cc(-c2cnc(N)c(-c3ccc(C(=O)N[C@H](CO)c4ccccc4)c(F)c3)n2)cn1 : 1.13
Nc1ncc([C@@H]2CNC(=O)C2)cc1-c1ccc(C(=O)N[C@H](CO)c2ccccc2)c(F)c1 : 32.7
Nc1ncc([C@H]2CC[C@@H](O)CC2)nc1-c1ccc(C(=O)NCc2ccccc2)c(F)c1 : 235

Given the entry Nc1ncc(C2CCC(=O)NC2)cc1-c1ccc(C(=O)NCc2ccccc2)c(F)c1 (racemic) , report its measured IC50. 17.6

----------
- system: activated ERK2 (Homo sapiens (Human), UniProt P28482)
- experimentalDetails: Activated ERK2 kinase assay, ERK2 New conditions (AlphaScreen, ERKtide phosphorylation)
- Type: biochemical
- testConditions: 0.25 nM ERK2, 200 nM ERKtide peptide, 35 μM ATP, 30 min preincubation
measuredQuantity: pIC50
# pIC50 = -log10(concentration in molar units)

Please review the entries below; each comes with its answer.
C[C@@H](NC(=O)c1ccc(-c2nc([C@H]3CC[C@H](O)CC3)cnc2N)cc1F)c1cccc(Cl)c1 [Example 415] : 8.77
Cc1c(-c2cnc(N)c(-c3ccc(C(=O)N[C@H](CO)c4ccccc4)c(F)c3)c2)cnn1C [Example 170] : 8.80
Cn1cc(-c2cnc(N)c(-c3ccc(C(=O)N[C@H](CO)c4cccc(F)c4)c(F)c3)c2)c(C#N)n1 [Example 159] : 8.50
Nc1ncc(C2CNC(=O)C2)cc1-c1ccc(C(=O)NCc2ccccc2)c(F)c1 (centres unmarked) [Example 316] : 6.48
Cn1cc(CNC(=O)c2ccc(-c3cc(-c4cnn(C)c4)cnc3N)cc2F)cn1 [Example 237] : 5.58

Hi! What's the reported pIC50 for Cn1nccc1-c1cnc(N)c(-c2ccc(C(=O)N[C@H](CO)c3cccc(F)c3)c(F)c2)c1 [Example 229] on activated ERK2 (Homo sapiens (Human), UniProt P28482)? 8.97

Also check C[C@@H](NC(=O)c1ccc(-c2nc(C3CCOCC3)cnc2N)cc1F)c1ccccc1 [Example 47] 9.09

Every entry's value here was drawn from patent US9242996B2.
